Quick reference: IC50 of the listed items.
Target: hP2X2/3H (Homo sapiens, UniProt P56373+Q9UBL9)
Construct: expressed in transfected cells; host or cells: e.g. HEK293 or 1321N1
Sequence (Q9UBL9 1-471): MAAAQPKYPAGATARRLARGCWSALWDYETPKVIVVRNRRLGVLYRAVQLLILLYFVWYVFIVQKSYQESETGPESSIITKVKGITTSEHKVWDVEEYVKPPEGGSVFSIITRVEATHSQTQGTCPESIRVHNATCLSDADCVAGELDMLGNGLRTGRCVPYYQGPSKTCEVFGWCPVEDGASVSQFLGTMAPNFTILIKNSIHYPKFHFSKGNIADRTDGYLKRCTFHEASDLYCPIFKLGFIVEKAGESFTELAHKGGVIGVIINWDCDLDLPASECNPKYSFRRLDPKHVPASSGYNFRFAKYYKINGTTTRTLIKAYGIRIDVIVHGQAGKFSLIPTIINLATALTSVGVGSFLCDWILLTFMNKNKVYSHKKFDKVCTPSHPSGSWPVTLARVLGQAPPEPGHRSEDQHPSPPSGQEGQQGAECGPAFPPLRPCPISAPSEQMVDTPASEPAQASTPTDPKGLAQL
Sequence (P56373 1-397): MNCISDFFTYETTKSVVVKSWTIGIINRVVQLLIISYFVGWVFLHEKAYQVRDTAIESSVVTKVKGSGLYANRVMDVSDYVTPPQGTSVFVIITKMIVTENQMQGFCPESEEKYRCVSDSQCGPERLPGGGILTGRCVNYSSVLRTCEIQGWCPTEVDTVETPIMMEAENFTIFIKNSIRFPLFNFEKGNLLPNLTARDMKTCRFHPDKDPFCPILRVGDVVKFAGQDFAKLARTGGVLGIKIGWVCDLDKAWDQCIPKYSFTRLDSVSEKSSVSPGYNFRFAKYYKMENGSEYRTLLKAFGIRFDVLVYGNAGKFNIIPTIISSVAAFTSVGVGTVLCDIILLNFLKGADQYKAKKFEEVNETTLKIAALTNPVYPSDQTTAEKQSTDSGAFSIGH
Test: Calcium uptake assay (P2X antagonist assay), P2X2/3 heteromer
Assay type: cell-based
Conditions: Ca influx (calcium uptake assay), hP2X2/3H; read-out: IC50 hP2X2/3H
Method: The human P2X2/3 chimera clone is created as described by Neelands et al, and then cloned into an expression vector as above. […] Functional activity of compounds at the P2X receptor is determined by measuring their ability to inhibit agonist-induced calcium influx. […] At the start of each screening day, the agonist EC50 is determined. Compound % inhibition or IC50s are subsequently determined using a predetermined agonist concentration (EC50-90 depending on cell line) as a stimulus. […]

>>> measured_result("Cc1ccc(-c2cc(Oc3nccs3)cc(C(=O)NCc3ccc(C)nc3)c2)c(C#N)c1")
"0.1 to 0.5 µM"
>>> measured_result("CCC(O)c1cc(C(=O)N[C@H](C)c2cnc(C)nc2)cc(-c2ccc(C)cc2C#N)c1 (stereo partly shown)")
"< 0.1 µM"
>>> measured_result("COCCOc1cc(C(=O)NCc2ccc(C)nc2)cc(-c2ccc(C)cc2)c1")
"< 0.1 µM"
>>> measured_result("Cc1ccc(-c2cc(C(=O)N[C@H](C)c3cnc(C)nc3)cc(C(O)CO)c2)cc1 (stereo partly shown)")
"0.1 to 0.5 µM"
>>> measured_result("Cc1ccc(-c2cc(Oc3ncccn3)cc(C(=O)N[C@H](C)c3ccc(C)nc3)c2)nc1")
"0.1 to 0.5 µM"

Given the compound "Cc1ccc(-c2cc(Oc3nc(Cl)cs3)cc(C(=O)N[C@H](C)c3ccc(C)nc3)c2)nc1" , what is its reported IC50?
< 0.1 µM

Given the compound "COCCOc1cc(C(=O)N[C@H](C)c2ccc(C)nc2)cc(-c2ccc(C)cc2C#N)c1" , what is its reported IC50?
< 0.1 µM

Source: patent US8946439B2
